A collection of compounds and their measured Kd
target: Fc-fusion protein of human PSMA (hPSMA-Fc) (Homo sapiens, UniProt Q04609); construct: purchased Acro Biosystems PSA-H5264; assay: Surface plasmon resonance assay (Biacore T200, single cycle kinetic); format: binding; settings: SPR, hPSMA-Fc, single cycle kinetic, 25° C.; category; read-out: pKD CAT (converted)
Sequence (Q04609 44-750 limits assumed): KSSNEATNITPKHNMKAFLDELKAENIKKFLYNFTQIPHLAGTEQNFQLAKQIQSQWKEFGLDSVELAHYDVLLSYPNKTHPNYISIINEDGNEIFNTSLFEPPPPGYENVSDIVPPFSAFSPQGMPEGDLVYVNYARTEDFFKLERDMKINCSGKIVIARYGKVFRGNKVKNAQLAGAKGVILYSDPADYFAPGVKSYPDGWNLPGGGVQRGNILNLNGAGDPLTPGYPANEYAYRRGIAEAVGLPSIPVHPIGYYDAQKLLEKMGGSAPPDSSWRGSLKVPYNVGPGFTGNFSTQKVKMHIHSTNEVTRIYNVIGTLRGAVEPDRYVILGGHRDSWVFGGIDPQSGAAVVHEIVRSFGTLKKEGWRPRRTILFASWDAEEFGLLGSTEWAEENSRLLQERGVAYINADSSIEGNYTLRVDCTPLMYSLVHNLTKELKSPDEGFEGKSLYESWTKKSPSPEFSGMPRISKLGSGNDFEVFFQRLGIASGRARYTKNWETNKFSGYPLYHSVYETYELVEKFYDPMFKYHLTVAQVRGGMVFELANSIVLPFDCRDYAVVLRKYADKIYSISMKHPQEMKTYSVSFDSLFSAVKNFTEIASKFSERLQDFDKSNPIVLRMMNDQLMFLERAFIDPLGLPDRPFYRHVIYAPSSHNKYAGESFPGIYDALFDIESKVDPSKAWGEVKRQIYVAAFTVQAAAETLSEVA
Numbered stars: 1 amine (or outer) side, 2 acyl side, 3 side chain; on linkers, the order of the positions; unused ones are H or OH. Bridge positions count the residues as written; N and C are the ends. Square brackets hold non-standard residues; d marks the D form. Peptide text beside a SMILES is read from it. * marks the point of attachment. X9 = C=C(N([C@@H](Cc1ccc(Cl)cc1)C(=O)[*:2])[*:1])C(C)(C)NC(=O)[C@@H](NC(C)=O)[C@@H](C)O; DOTA = O=C(O)CN1CCN(CC(=O)O)CCN(CC(=O)*)CCN(CC(=O)O)CC1; Phe(4-Cl) = N[C@@H](Cc1ccc(Cl)cc1)C(=O)O; X1 = O=C(CC1CCN([*:1])CC1)[*:2]; Cit = NC(=O)NCCC[C@H](N)C(=O)O; d(αMeS) = C[C@@](N)(CO)C(=O)O; Tle = CC(C)(C)[C@H](N)C(=O)O; Aib = CC(C)(N)C(=O)O

compound	Kd
C[C@@H](O)[C@H](NC(=O)[C@@H](NC(=O)[C@@H]1CSSC[C@H](NC(=O)[C@H](Cc2ccc(Cl)cc2)NC(=O)[C@@](C)(CO)NC(=O)[C@@H](NC(=O)CC2CCN(C(=O)CN3CCN(CC(=O)O)CCN(CC(=O)O)CCN(CC(=O)O)CC3)CC2)[C@@H](C)O)C(=O)N[C@@H](CCCCN)C(=O)N[C@@H](CCCNC(=N)N)C(=O)NC(C)(C)C(=O)N[C@@H](CC(N)=O)C(=O)N1)C(C)(C)C)C(N)=O [PSM-0256] ({DOTA}-[X1]T[d(αMeS)][Phe(4-Cl)]CKR[Aib]NC[Tle]T-NH2; disulfide 5-10)	< 12.6 nM
C=C(N[C@@H](Cc1ccc(Cl)cc1)C(=O)N[C@H]1CSSC[C@@H](C(=O)N[C@H](C(=O)N[C@H](C(N)=O)[C@@H](C)O)C(C)(C)C)NC(=O)[C@H](CCCNC(=N)N)NC(=O)C(C)(C)NC(=O)[C@H](CCCNC(N)=O)NC(=O)[C@H](CCCCN)NC1=O)C(C)(C)NC(=O)[C@@H](NC(C)=O)[C@@H](C)O [PSM-0240] (H-[X9]CK[Cit][Aib]RC[Tle]T-NH2; disulfide 2-7)	< 12.6 nM

###

molecular target: Fc-fusion protein of human PSMA (hPSMA-Fc) (Homo sapiens, UniProt Q04609); construct: purchased Acro Biosystems PSA-H5264; assay: Surface plasmon resonance assay (Biacore T200, single cycle kinetic); type: binding; details: pKD category for PSMA SPR activity assay, hPSMA-Fc, 25° C.; read-out: pKD CAT (converted)
Numbered stars: 1 amine (or outer) side, 2 acyl side, 3 side chain; on linkers, the order of the positions; unused ones are H or OH. Bridge positions count the residues as written; N and C are the ends. Square brackets hold non-standard residues; d marks the D form. Side chains are listed from the residue outwards. Peptide text beside a SMILES is read from it. * marks the point of attachment. DOTA = O=C(O)CN1CCN(CC(=O)O)CCN(CC(=O)*)CCN(CC(=O)O)CC1; Phe(3-Cl) = N[C@@H](Cc1cccc(Cl)c1)C(=O)O; Phe(4-Cl) = N[C@@H](Cc1ccc(Cl)cc1)C(=O)O; Phe(4-NH2) = Nc1ccc(C[C@H](N)C(=O)O)cc1; X1 = O=C(CC1CCN([*:1])CC1)[*:2]; NMeK = CN[C@@H](CCCCN)C(=O)O; Tle = CC(C)(C)[C@H](N)C(=O)O; Nle = CCCC[C@H](N)C(=O)O; AEEA = NCCOCCOCC(=O)O; Aib = CC(C)(N)C(=O)O; CO = O=C([*:1])[*:2]; βAla = NCCC(=O)O; NHBu = CCCCN*
A collection of compounds and their measured Kd
property_name: Kd

compound	property_name	result
CCCC[C@H](NC(=O)[C@@H]1CSSC[C@H](NC(=O)[C@H](Cc2ccccc2)NC(=O)C(C)(C)NC(=O)[C@@H](NC(C)=O)[C@@H](C)O)C(=O)N[C@@H](CCCCN)C(=O)N[C@@H](CCCNC(=N)N)C(=O)N[C@@H](C)C(=O)N[C@@H](CC(N)=O)C(=O)N1)C(=O)N[C@H](C(=O)N[C@@H](CC(=O)O)C(N)=O)[C@@H](C)O [PSM-0501] (Ac-T[Aib]FCKRANC[Nle]TD-NH2; disulfide 4-9)	Kd	< 12.6 nM
CC(=O)N[C@H](C(=O)NC(C)(C)C(=O)N[C@@H](Cc1ccccc1)C(=O)N[C@H]1CSSC[C@@H](C(=O)N[C@H](C(=O)N[C@H](C(=O)N[C@@H](CC(=O)O)C(N)=O)[C@@H](C)O)C(C)(C)C)NC(=O)[C@H](CC(N)=O)NC(=O)[C@H](C)NC(=O)[C@H](CCCNC(=N)N)NC(=O)[C@H](Cc2ccc(N)cc2)NC1=O)[C@@H](C)O [PSM-0439] (Ac-T[Aib]FC[Phe(4-NH2)]RANC[Tle]TD-NH2; disulfide 4-9)	Kd	126 to 501 nM
CC(=O)N[C@H](C(=O)NC(C)(C)C(=O)N[C@@H](Cc1ccccc1)C(=O)N[C@H]1CSSC[C@@H](C(=O)N[C@H](C(=O)NCC(N)=O)C(C)(C)C)NC(=O)[C@H](CC(N)=O)NC(=O)C(C)(C)NC(=O)[C@H](CCCNC(=N)N)NC(=O)[C@H](CCCCN)NC1=O)[C@@H](C)O [PSM-0477] (Ac-T[Aib]FCKR[Aib]NC[Tle]G-NH2; disulfide 4-9)	Kd	< 12.6 nM
C[C@@H](O)[C@H](NC(=O)[C@@H](NC(=O)[C@@H]1CSSC[C@H](NC(=O)[C@H](Cc2ccccc2)NC(=O)C(C)(C)NC(=O)CN2CCN(CC(=O)O)CCN(CC(=O)O)CCN(CC(=O)O)CC2)C(=O)N[C@@H](CCCCN)C(=O)N[C@@H](CCCNC(=N)N)C(=O)NC(C)(C)C(=O)N[C@@H](CC(N)=O)C(=O)N1)C(C)(C)C)C(N)=O [PSM-0447] ({DOTA}-[Aib]FCKR[Aib]NC[Tle]T-NH2; disulfide 3-8)	Kd	> 501 nM
CCCCNC(=O)N[C@H](C(=O)NC(C)(C)C(=O)N[C@@H](Cc1ccccc1)C(=O)N[C@H]1CSSC[C@@H](C(=O)N[C@H](C(=O)N[C@H](C(=O)N2CCC(CC(=O)N[C@H](CCCCNC(=O)CN3CCN(CC(=O)O)CCN(CC(=O)O)CCN(CC(=O)O)CC3)C(N)=O)CC2)[C@@H](C)O)C(C)(C)C)NC(=O)[C@H](CC(N)=O)NC(=O)C(C)(C)NC(=O)[C@H](CCCNC(=N)N)NC(=O)[C@H](CCCCN)NC1=O)[C@@H](C)O [PSM-0484] ({NHBu-CO}-T[Aib]FCKR[Aib]NC[Tle]T[X1][dK](DOTA)-NH2; disulfide 4-9)	Kd	< 12.6 nM
CC(=O)N[C@H](C(=O)NC(C)(C)C(=O)N[C@@H](Cc1ccccc1)C(=O)N[C@H]1CSSC[C@@H](C(=O)N[C@H](C(=O)N[C@H](C(N)=O)[C@@H](C)O)C(C)(C)C)NC(=O)[C@H](CC(N)=O)NC(=O)[C@H](CCCCNC(=O)COCCOCCNC(=O)CN2CCN(CC(=O)O)CCN(CC(=O)O)CCN(CC(=O)O)CC2)NC(=O)[C@H](CCCNC(=N)N)NC(=O)[C@H](CCCCN)NC1=O)[C@@H](C)O [PSM-0401] (Ac-T[Aib]FCKRK([AEEA-DOTA])NC[Tle]T-NH2; disulfide 4-9)	Kd	< 12.6 nM
C[C@@H](O)[C@H](NC(=O)CC1CCN(C(=O)CN2CCN(CC(=O)O)CCN(CC(=O)O)CCN(CC(=O)O)CC2)CC1)C(=O)NC(C)(C)C(=O)N[C@@H](Cc1ccc(Cl)cc1)C(=O)N[C@H]1CSSC[C@@H](C(=O)N[C@H](C(=O)NCCC(N)=O)C(C)(C)C)NC(=O)[C@H](CC(N)=O)NC(=O)C(C)(C)NC(=O)[C@H](CCCNC(=N)N)NC(=O)[C@H](CCCCN)NC1=O [PSM-0467] ({DOTA}-[X1]T[Aib][Phe(4-Cl)]CKR[Aib]NC[Tle][βAla]-NH2; disulfide 5-10)	Kd	< 12.6 nM
CC(=O)N[C@H](C(=O)NC(C)(C)C(=O)N[C@@H](Cc1cccc(Cl)c1)C(=O)N[C@H]1CSSC[C@@H](C(=O)N[C@H](C(=O)N[C@H](C(=O)N2CCC(CC(=O)N[C@H](CCCCNC(=O)CN3CCN(CC(=O)O)CCN(CC(=O)O)CCN(CC(=O)O)CC3)C(N)=O)CC2)[C@@H](C)O)C(C)(C)C)NC(=O)[C@H](CC(N)=O)NC(=O)C(C)(C)NC(=O)[C@H](CCCNC(=N)N)NC(=O)[C@H](CCCCN)NC1=O)[C@@H](C)O [PSM-0486] (Ac-T[Aib][Phe(3-Cl)]CKR[Aib]NC[Tle]T[X1][dK](DOTA)-NH2; disulfide 4-9)	Kd	< 12.6 nM
CC(=O)N[C@H](C(=O)NC(C)(C)C(=O)N[C@@H](Cc1ccccc1)C(=O)N[C@H]1CSSC[C@@H](C(=O)N[C@H](C(=O)N[C@H](C(N)=O)[C@@H](C)O)C(C)(C)C)NC(=O)[C@H](CC(N)=O)NC(=O)C(C)(C)NC(=O)[C@H](CCCNC(=N)N)NC(=O)[C@H](CCCCN)N(C)C1=O)[C@@H](C)O [PSM-0451] (Ac-T[Aib]FC[NMeK]R[Aib]NC[Tle]T-NH2; disulfide 4-9)	Kd	12.6 to 126 nM

The reported numbers originate from patent US20260083865A1.
